- Test summary: ATG_GATA_CIS: Attagene CIS-FACTORIAL HepG2 Assay for human GATA Binding Protein (AID 2282944)
- Condition details: HepG2 GATA cis-element reporter, Attagene multiplex mRNA; actives raise or lower the signal
- Experimental: ATG_CIS is a cell-based, multiplexed-readout assay that uses HepG2, a human liver cell line, with measurements taken at 24 hours after chemical dosing in a 24-well plate.ATG_GATA_CIS is one of 52 assay component(s) measured or calculated from the ATG_CIS assay. […] This assay endpoint, ATG_GATA_CIS, was analyzed with bidirectional fitting relative to DMSO as the negative control and baseline of activity. […]
The source made the active and inactive calls. How the source made its calls: active means hit-call score of the fitted dose curve at least 0.9, where 1 is the maximum; inactive means score below 0.9.
Outcome codes: active, inactive

[
  {
    "Compound": "Cc1ccc(S(=O)(=O)C(I)I)cc1",
    "Classification": "active"
  },
  {
    "Compound": "CCc1ccc(C)nc1",
    "Classification": "inactive"
  },
  {
    "Compound": "CC(=O)CCC(C)C",
    "Classification": "inactive"
  },
  {
    "Compound": "OCC1CCCO1 (configuration not stated)",
    "Classification": "inactive"
  },
  {
    "Compound": "Oc1ccc2c(c1)CCC2",
    "Classification": "inactive"
  },
  {
    "Compound": "CO[Si](C)(CCC(F)(F)C(F)(F)C(F)(F)C(F)(F)C(F)(F)C(F)(F)F)OC",
    "Classification": "inactive"
  },
  {
    "Compound": "CCCCCCCCCc1ccc(OCCO)cc1",
    "Classification": "inactive"
  },
  {
    "Compound": "C=CC(=O)OCC(F)(F)C(F)(F)C(F)(F)COC(=O)C=C",
    "Classification": "inactive"
  },
  {
    "Compound": "CC1CCCCC1",
    "Classification": "inactive"
  },
  {
    "Compound": "O=S(=O)(O)CCC(F)(F)C(F)(F)C(F)(F)C(F)(F)F",
    "Classification": "inactive"
  },
  {
    "Compound": "CCOC(=O)C1CC(=O)C(=C(O)C2CC2)C(=O)C1 (configuration not stated)",
    "Classification": "inactive"
  },
  {
    "Compound": "CN(C)C(C)(C)CO",
    "Classification": "inactive"
  },
  {
    "Compound": "CCCCCCCCCCCC(=O)Cl",
    "Classification": "inactive"
  },
  {
    "Compound": "NC(O)(C(F)(F)F)C(F)(F)F",
    "Classification": "inactive"
  },
  {
    "Compound": "O=S(=O)(O)CCC(F)(F)C(F)(F)C(F)(F)C(F)(F)C(F)(F)C(F)(F)C(F)(F)C(F)(F)F",
    "Classification": "inactive"
  },
  {
    "Compound": "CCN(CC)c1ccc2c(c1)Oc1cc(N(CC)CC)ccc1C21OC(=O)c2ccccc21",
    "Classification": "inactive"
  },
  {
    "Compound": "CCC(C)CO (configuration not stated)",
    "Classification": "inactive"
  },
  {
    "Compound": "CC(=O)c1ccccc1N",
    "Classification": "inactive"
  },
  {
    "Compound": "OCC(O)CC(F)(F)C(F)(F)C(F)(F)C(F)(F)C(F)(F)C(F)(F)C(F)(F)C(F)(F)F (configuration not stated)",
    "Classification": "inactive"
  },
  {
    "Compound": "CCCCCCCC/C=C\\CCCCCCCC(=O)OCC(O)CO (configuration not stated)",
    "Classification": "inactive"
  },
  {
    "Compound": "NC(=O)C(F)(F)C(F)(F)C(F)(F)F",
    "Classification": "inactive"
  },
  {
    "Compound": "OCCCC(F)(F)C(F)(F)C(F)(F)C(F)(F)C(F)(F)C(F)(F)C(F)(F)C(F)(F)F",
    "Classification": "inactive"
  }
]
